Test Method Notes: plasma levels of Compound A in MI-rat
Assay type: in vivo
Run Parameters: po, 0.05 mg/kg/day in chow, read-out: Plasma Level
Reported Endpoint: concentration at 1008 h
Please format your answer as a value with the unit trailing.

In: What value of concentration at 1008 h has been recorded for this entry: CC(C)C(NS(=O)(=O)c1ccc(-c2ccc(Br)cc2)cc1)C(=O)O (stereo not shown)
Out: 16 µM

====

Test Method Notes: plasma levels of Compound A in MI-rat
Type: in vivo
Run Parameters: po, 0.5 mg/kg/day in chow, read-out: Plasma Level
Reported Endpoint: concentration at 1008 h (µM)
Kindly provide the numeric value in µM only, without the unit symbol.

In: What value of concentration at 1008 h has been recorded for this entry: CC(C)C(NS(=O)(=O)c1ccc(-c2ccc(Br)cc2)cc1)C(=O)O (stereo not shown) [Compound A]
Out: 55

====

Test Method Notes: in vivo
Design: species or system Yorkshire pigs
Run Parameters: pig, po, 10 mg/kg
Reported Endpoint: bioavailability at 4 h

In: What value of bioavailability at 4 h has been recorded for this entry: CC(C)C(NS(=O)(=O)c1ccc(-c2ccc(Br)cc2)cc1)C(=O)O (stereo not shown) [Compound A]
Out: ~100%

====

Test Method Notes: plasma levels of Compound A in MI-rat
Format: in vivo
Run Parameters: po, 0.005 mg/kg/day in chow, read-out: Plasma Level
Reported Endpoint: concentration at 1008 h (µM)
Kindly provide the numeric value in µM only, without the unit symbol.

In: What value of concentration at 1008 h has been recorded for this entry: CC(C)C(NS(=O)(=O)c1ccc(-c2ccc(Br)cc2)cc1)C(=O)O (stereo not shown) [Compound A]
Out: 2

====

Test Method Notes: plasma levels of Compound A in MI-rat
Assay type: in vivo
Run Parameters: po, 5 mg/kg/day in chow, read-out: Plasma Level
Reported Endpoint: concentration at 1008 h
Please format your answer as a value with the unit trailing.

In: What value of concentration at 1008 h has been recorded for this entry: CC(C)C(NS(=O)(=O)c1ccc(-c2ccc(Br)cc2)cc1)C(=O)O (stereo not shown) [Compound A]
Out: 201 µM

====

Assay System: MMP-2 (Gelatinase A) (Homo sapiens)
Sequence (P08253 110-660): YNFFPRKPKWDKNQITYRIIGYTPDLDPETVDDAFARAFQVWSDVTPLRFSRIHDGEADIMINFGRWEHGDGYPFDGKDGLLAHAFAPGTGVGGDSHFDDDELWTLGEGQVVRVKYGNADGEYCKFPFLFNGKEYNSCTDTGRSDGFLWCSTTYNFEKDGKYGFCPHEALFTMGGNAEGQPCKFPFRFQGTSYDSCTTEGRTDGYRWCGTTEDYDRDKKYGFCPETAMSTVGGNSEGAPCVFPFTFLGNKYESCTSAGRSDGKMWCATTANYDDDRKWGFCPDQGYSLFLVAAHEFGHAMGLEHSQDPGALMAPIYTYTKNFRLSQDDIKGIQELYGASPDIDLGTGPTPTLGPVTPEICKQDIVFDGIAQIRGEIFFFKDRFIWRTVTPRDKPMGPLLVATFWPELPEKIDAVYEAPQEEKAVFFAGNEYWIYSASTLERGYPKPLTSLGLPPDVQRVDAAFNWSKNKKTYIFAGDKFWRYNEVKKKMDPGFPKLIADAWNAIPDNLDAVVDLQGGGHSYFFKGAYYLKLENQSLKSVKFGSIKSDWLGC
Reported Endpoint: IC50
Please format your answer as a value with the unit trailing.

In: What value of IC50 has been recorded for this entry: "O=C(Cc1ccccc1)N[C@@H](CC(=O)c1ccc2oc3ccccc3c2c1)C(=O)O"
Out: 84 nM
